The measured values listed here are drawn from ChEMBL document CHEMBL4304743.

assay.explanation: Antiproliferative activity in mouse BAF3 cells after 72 hrs by CCK8 assay
Format: cell-based
measured.quantity: GI50 at 72 h (µM)

>>> recorded_result("CN1CCN(Cc2ccc(-c3n[nH]c4cc(NC(=O)CC(=O)Nc5ccc(Cl)c(C(F)(F)F)c5)ccc34)cc2)CC1")
0.911
>>> recorded_result("O=C(CC(=O)Nc1cc(F)ccc1F)Nc1ccc2c(/C=C/c3ccccn3)n[nH]c2c1")
5.08
>>> recorded_result("O=C(CC(=O)Nc1ccc2c(/C=C/c3ccccn3)n[nH]c2c1)Nc1cccc(Cl)c1")
3.61

----------
assay.explanation: Antiproliferative activity in mouse BAF3 cells after 72 hrs by CCK8 assay
Assay type: cell-based
measured.quantity: GI50 at 72 h

>>> recorded_result("CN(C)c1cccc(NC(=O)CC(=O)Nc2ccc3c(/C=C/c4ccccn4)n[nH]c3c2)c1")
"> 10 µM"
>>> recorded_result("COc1cccc(NC(=O)CC(=O)Nc2ccc3c(/C=C/c4ccccn4)n[nH]c3c2)c1")
"> 10 µM"
>>> recorded_result("CNC(=O)c1cncc(-c2n[nH]c3cc(NC(=O)CC(=O)Nc4ccc(Cl)c(C(F)(F)F)c4)ccc23)c1")
"> 10 µM"
>>> recorded_result("O=C(Nc1ccc(Cl)c(C(F)(F)F)c1)C1(C(=O)Nc2ccc3c(/C=C/c4ccccn4)n[nH]c3c2)CC1")
"> 10 µM"
